target: pooled human IgG
Measurement label: Enzyme Activity Endpoint Assay (purified): Fab'2 (ng/µL)
Just the number in ng/µL, nothing appended.

In the examples that follow, each entry is paired with its recorded Enzyme Activity Endpoint Assay (purified): Fab'2.
Protein	Reported measurement
PRT-155 (protein) MANQEIRYSEVTPYHVTSVWTDGVTPPANFTQGEDVFHAPYVANQGWYDITKTFNGKDDLLCGAATAGNMLHWWFDQNSTQIEAYLKKHPEKQKINFNGEQMFDVKEAIDTKNHQLDSKLFEYFKEKAFPYLSTKHLGVFPDHVIDMFINGYRLSLTNHGPTPVKEGSKDPRGGIFDAVFTRGDQSKLLTSRHDFKEKNLKEISDLIKKELTEGKALGLSHTYANVRINHVINLWGADFDSNGNLKAIYVTDSDSNASIGMKKYFVGVNSAGKVAISAKEIKEDNIGAQVLGLFTLSTGKKSWEKTN	751
PRT-162 (protein) MANQEIRYSEVTPYHVTSVWTKGVTPPANFTQGEDVFHAPYVANQGWYDITKTFNGKDDLLCGAATAGNMLHWWFDQNKDQIKRYLEEHPEKQKINFNGEQMFDVKEAIDTKNSQTNSELFNYFKEKAFPYLSTKHLGVFPDHVIDMFINGYRLSLTNHGPTPVKEGSKDPRGGIFDAVFTRGDQSKLLTSRHDFKEKNLKEISDLIKKELTEGKALGLSHTYANVRINHVINLWGADFDSNGNLKAIYVTDSDSNASIGMKKYFVGVNSAGKVAISAKEIKEDNIGAQVLGLFTLSTGQDSWNQTN	729
PRT-153 (protein) MANQEIRYSEVTPYHVTSVWTKGVTPPANFTQGEDVFHAPYVANQGWYDITKTFNGKDDLLCGAATAGNMLHWWFDQNKTQIERYLKKHPEKQKINFNGEQMFDVKEAIDTKNHQLDSKLFEYFKEKAFPYLSTKHLGVFPDHVIDMFINGYRLSLTNHGPTPVKEGSKDPRGGIFDAVFTRGDQSKLLTSRHDFKEKNLKEISDLIKKELTEGKALGLSHTYANVRINHVINLWGADFDSNGNLKAIYVTDSDSNASIGMKKYFVGVNSAGKVAISAKEIKEDNIGAQVLGLFTLSTGKDSWKKTN	619

Then this protein:
Q: Given the protein PRT-306 (protein) MVTSVWTKGVTPPTDFIKGEDVFHAPYDAGQGWYDITKEFNGKDDLLCGAATAGNMLHWWFDQNKEYIEAYLKKHPEKQKIMFGDQELLDVRKAINTKGSQKNSELFNYFRDKAFPNLSARRLGVMPDLVLDMFINGYYLNVTKTQTTDVNRTYQEKDKRGGIFDAVFTRGDQSKLLTSRHDFKEKGLKEISDLIKQELTEGKALGLSHTYANVRIGHVINLWGADFDSDGNLKAIYVTDSDSNASIGMKKYGVGVNSAGKVAISAKEIKEDNIGAQVLGLFTLSTGQDIWNQTN , what is its reported Enzyme Activity Endpoint Assay (purified): Fab'2?
Result: 467
